- TARGET OF ASSAY: T1, recombinant human Fc-PD-1 protein (human, UniProt Q15116 25-170)
- T1 construct: may be the same protein as the PD-1 Fc fusion of the Luminex assays; also called recombinant human PD-1 in an Fc fusion construct; not shown: Fc part not described
- T1 sequence (Q15116 25-170): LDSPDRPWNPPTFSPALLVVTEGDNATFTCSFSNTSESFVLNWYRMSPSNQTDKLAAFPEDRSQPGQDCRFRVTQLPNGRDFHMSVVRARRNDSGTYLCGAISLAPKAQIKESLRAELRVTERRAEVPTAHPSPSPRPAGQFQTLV
- TEST NAME: Biacore, Fab, human Fc-PD-1
Field: koff. Provide a value for each of the binders that follow.
The figure you give is taken to be in s⁻¹; do not add the unit.

Just so you know, measured koff for A35774 (Fab, V domains shown, humanized Fab clone of 135C12; also called humanized antibody A35774) VH: EVQLVQSGAEVKKPGESLKISCKGSGYSFTNFYIHWVRQAPGQRLEWMGSIYPNYGDTAYNQKFKDRFVFSLDTSVSTAYLQISSLKAEDTAVYYCARGYSYAMDYWGQGTTVTVSS VL: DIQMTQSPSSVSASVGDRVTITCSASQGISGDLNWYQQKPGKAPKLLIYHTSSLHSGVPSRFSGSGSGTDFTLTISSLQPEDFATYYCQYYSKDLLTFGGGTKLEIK came out at 0.000211

Lab note: measured koff of A36437 (Fab, V domains shown, humanized Fab clone of 135C12; also called humanized antibody A36437) VH: EVQLVQSGAEVKKPGESLKISCKGSGYSFTNFYIHWVRQMPGKGLEWMGSIYPNYGDTAYNQKFKDRFVFSLDTSVSTAYLQISSLKAEDTAVYYCARGYSYAMDYWGQGTTVTVSS VL: DIQMTQSPSTLSASVGDRVTITCSASQGISGDLNWYQQKPGQAPRLLIYHTSSLHSGIPARFSGSGSGTDFTLTISSLQPEDFAVYYCQYYSKDLLTFGGGTKLEIK was 0.000317

Query A35783 (Fab, V domains shown, humanized Fab clone of 135C12; also called humanized antibody A35783) VH: EVQLVQSGAEVKKPGESLKISCKGSGYSFTNFYIHWVRQARGQRLEWIGSIYPNYGDTAYNQKFKDRFVFSLDTSVSTAYLQISSLKAEDTAVYYCARGYSYAMDYWGQGTTVTVSS VL: DIQMTQSPSSLSASVGDRVTITCSASQGISGDLNWYQQKPGKTPKLLIYHTSSLHSGVPSRFSGSGSGTDFTLTISSLQPEDFATYYCQYYSKDLLTFGGGTKLEIK yields koff of 0.000196
